- studySystem: HLA-B*15:17
- protocolSummary: IEDB peptide-MHC binding, purified MHC/competitive/fluorescence; filed as Kd, often an IC50 or EC50 that approximates it; bounds were set here for any values at or beyond the usual limits of such assays
- measurementContext: source organism: Yersinia mollaretii ATCC 43969
pKd: −log10 of the molar value.
assayReadout: pKd

Which pKd is reported with HLA-B*15:17 for this entry: MMWIPGWFG ? ≤ 4.70

====

- studySystem: HLA-B*40:01
- protocolSummary: IEDB peptide-MHC binding, purified MHC/direct/fluorescence; filed as Kd, often an IC50 or EC50 that approximates it; bounds were set here for any values at or beyond the usual limits of such assays
- measurementContext: source organism: Brucella melitensis
assayReadout: Kd

• CTDPPLLSV = ≥ 20 µM

Next sequence, Kd to be filled in.
Quick one: Kd for ALFEDYPGC ? ≥ 20 µM
